Test system: NCI-H358 (K-Ras G12C)
Experiment: CellTiter-Glo cell viability assay, 5-day treatment
Type: cell-based
Settings: Homo sapiens, NCI-H358, H358, K-Ras G12C; read-out: Additional H358 Cell Viability assay data (K-Ras G12C, IC50)
Assign IC50 to each entry below.

Test item C=CC(=O)N1CC2[C@@H](C1)CN2C(=O)N(C)[C@H](C(=O)N[C@H]1Cc2nc(cs2)-c2ccc3c(c2)c(c(-c2cccnc2[C@H](C)OC)n3CC)CC(C)(C)COC(=O)[C@@H]2CCCN(N2)C1=O)C(C)C (stereo partly shown) [Example A686] ; NCI-H358 (K-Ras G12C); reported IC50 was < 10 nM

Test item C=CC(=O)Nc1cnc(C(=O)N(C)[C@H](C(=O)N[C@H]2Cc3cccc(c3)-c3ccc4c(c3)c(c(-c3cccnc3[C@H](C)OC)n4CC)CC(C)(C)COC(=O)[C@@H]3CCCN(N3)C2=O)C(C)C)n1C [Example A525] ; NCI-H358 (K-Ras G12C); reported IC50 was < 10 nM

Test item C=CC(=O)N1CC[C@H](C(=O)N(C)[C@H](C(=O)N[C@H]2Cc3cccc(c3)-c3ccc4c(c3)c(c(-c3cccnc3[C@H](C)OC)n4CC)CC(C)(C)COC(=O)C3CCCN(N3)C2=O)[C@@H](C)C(F)(F)F)C1 (stereo partly shown) [Example A640] ; NCI-H358 (K-Ras G12C); reported IC50 was 10 to 100 nM

Test item C=CC(=O)N1CC[C@H](C(=O)N(C)[C@H](C(=O)N[C@H]2C[C@H]3CN(CCCO3)c3ccc4c(c3)c(c(-c3cccnc3[C@H](C)OC)n4CC)CC(C)(C)COC(=O)[C@@H]3CCCN(N3)C2=O)C(C)C)C1 (racemic) [Example A405] ; NCI-H358 (K-Ras G12C); reported IC50 was > 1000 nM
